# Assayed target: purified NANOLUC® Luciferase (Oplophorus gracilirostris, UniProt Q9GV45, A31E/A60N/A81I/F95D/I117V/K70R/L54V/L99Q/M102K/N193R/P142E/Q151K/Q38R/Q45L/V71I/Y165I)
# Sequence (Q9GV45 28-196 with tags or gaps with the stated changes limits assumed): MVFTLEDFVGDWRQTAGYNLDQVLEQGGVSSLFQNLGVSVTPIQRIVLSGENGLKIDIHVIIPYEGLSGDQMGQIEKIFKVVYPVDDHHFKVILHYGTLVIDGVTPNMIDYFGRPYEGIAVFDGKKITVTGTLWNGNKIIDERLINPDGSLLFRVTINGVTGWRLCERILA
# Format: biochemical
# Cond: relative value, furimazine set to 1; purified NanoLuc; initial light output three minutes after substrate addition
Measure name: RLU at 100 uM

CC(=O)N[C@@H](CC(=O)O)C(=O)N[C@@H](CC(=O)O)C(=O)N[C@@H](CC(=O)O)C(=O)NCCCCCCOc1ccc(Cc2nc3c(Cc4ccccc4)[nH]c(-c4ccccc4)cn-3c2=O)cc1F : 0.021
O=C(O)CCCCCOc1cccc(Cc2nc3c(Cc4ccccc4)[nH]c(-c4ccccc4)cn-3c2=O)c1 : 0.0057
O=c1c(Cc2cccc(OCCCCCCS(=O)(=O)[O-])c2)nc2c(Cc3ccccc3)[nH]c(-c3ccccc3)cn1-2.[Na+] : 0.016
CC(C)(C)OC(=O)CCCOc1cccc(Cc2nc3c(Cc4ccccc4)[nH]c(-c4ccccc4)cn-3c2=O)c1 : 0.0013
CC(=O)N[C@@H](CC(=O)O)C(=O)N[C@@H](CC(=O)O)C(=O)N[C@@H](CC(=O)O)C(=O)NCCCCCCOc1cccc(Cc2nc3c(Cc4ccccc4)[nH]c(-c4ccccc4)cn-3c2=O)c1 : 0.0057
O=c1c(Cc2ccc(OCCCCCCS(=O)(=O)[O-])c(Cl)c2)nc2c(Cc3ccccc3)[nH]c(-c3ccccc3)cn1-2.[Na+] : 0.14
O=c1c(Cc2ccc(OCCCCCCCCCCS(=O)(=O)[O-])c(Cl)c2)nc2c(Cc3ccccc3)[nH]c(-c3ccccc3)cn1-2.[Na+] : 0.011
O=c1c(Cc2ccc(OCCCCCCS(=O)(=O)O)c(Cl)c2)nc2c(Cc3ccccc3)[nH]c(-c3cccc(O)c3)cn1-2 : 0.17
NCCCCCCOc1cccc(Cc2nc3c(Cc4ccccc4)[nH]c(-c4ccccc4)cn-3c2=O)c1 : 0.0077
O=C(O)c1ccc(-c2cn3c(=O)c(Cc4ccco4)nc-3c(Cc3ccccc3)[nH]2)cc1 : 0.0029
CC(C)(C)OC(=O)CCCCCOc1ccc(Cc2nc3c(Cc4ccccc4)[nH]c(-c4ccccc4)cn-3c2=O)cc1Cl : 0.013
O=c1c(Cc2ccc(OCCCCCCCCS(=O)(=O)[O-])c(Cl)c2)nc2c(Cc3ccccc3)[nH]c(-c3ccccc3)cn1-2.[Na+] : 0.075
